Source listed as paper PMC11672294.

- System: HT29
- assaySetup: 72 h, relative to DMSO, 10 µM, Relative cell viability (%)
Counter-ions that a name gives are not always drawn.
valueKind: Relative cell viability (%) (%)
Give bare numbers, in %.

compound: CCOC(=O)C1=C(COCCN)NC(C)=C(C(=O)OC)C1c1ccccc1Cl (centres unmarked) [Amlodipine]
observedMeasurement: 88.54
//
compound: CCN(C)C(=O)Oc1cccc([C@H](C)N(C)C)c1 [Rivastigmine]
observedMeasurement: 88.03
//
compound: Cc1c(-c2ccc(O)cc2)n(Cc2ccc(OCCN3CCCCCC3)cc2)c2ccc(O)cc12 [Bazedoxifene Acetate]
observedMeasurement: 88.41

Can you give me Relative cell viability (%) for all of these, one by one?
1. COc1ccc(C[C@@H]2c3cc(OC)c(OC)cc3CC[N@+]2(C)CCC(=O)OCCCCCOC(=O)CC[N@@+]2(C)CCc3cc(OC)c(OC)cc3[C@H]2Cc2ccc(OC)c(OC)c2)cc1OC [Atracurium Besylate]
2. Cc1c(-c2ccc(O)cc2)n(Cc2ccc(OCCN3CCCCCC3)cc2)c2ccc(O)cc12 [Bazedoxifene HCl]

Outgoing:
1: 91.95; 2: 91.36
